Assay: self-splicing fitness, log relative to wild type (ln ratio); higher = more splicing; Tetrahymena group I intron in knt gene, E. coli kanamycin selection, DiMSum; sequences stand for … in CUCUCU…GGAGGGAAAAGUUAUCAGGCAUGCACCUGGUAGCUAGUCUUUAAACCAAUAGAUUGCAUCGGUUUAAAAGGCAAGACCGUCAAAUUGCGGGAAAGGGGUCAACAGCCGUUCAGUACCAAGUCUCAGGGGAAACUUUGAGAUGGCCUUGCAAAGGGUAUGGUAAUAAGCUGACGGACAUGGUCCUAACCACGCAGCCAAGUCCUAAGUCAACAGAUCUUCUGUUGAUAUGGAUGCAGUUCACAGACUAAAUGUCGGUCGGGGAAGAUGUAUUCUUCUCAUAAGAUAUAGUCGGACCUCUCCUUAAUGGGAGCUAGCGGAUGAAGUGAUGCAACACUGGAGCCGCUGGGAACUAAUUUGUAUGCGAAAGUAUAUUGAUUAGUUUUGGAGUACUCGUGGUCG;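 also: selection with 25 µg/mL kanamycin versus none on LB agar overnight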
Settings: 30 °C
param class (str): category from self-splicing fitness (ln); see ranges bin 1 (below -2), bin 2 (-2 to below -0.8), bin 3 (-0.8 or more)

CUUCAGCAAUAUUACGUCAA ... bin 2
UACCAGCAAUAUUACGUCAC ... bin 1
AUUCAGCAAUAUUACGACUU ... bin 3
GUUCAGCAAUAUUACGGCGC ... bin 3
GGUUAGCAAUAUUACGGAUG ... bin 3
CUAAAGCAAUAUUACGUUAU ... bin 1

Task: Input "GCACAGCAAUAUUACGCUAC" ; output its category
Result: bin 1

Task: Input "GAGGAGCAAUAUUACGUCCA" ; output its category
Result: bin 2

Task: Input "ACAUAGCAAUAUUACGCACA" ; output its category
Result: bin 2

Task: Input "UGUCAGCAAUAUUACGACCG" ; output its category
Result: bin 3

Task: Input "CAUUAGCAAUAUUACGUCAA" ; output its category
Result: bin 1

Task: Input "ACAAAGCAAUAUUACGCGAA" ; output its category
Result: bin 1

----------
Test: self-splicing fitness, log relative to wild type (ln ratio); higher = more splicing; Tetrahymena group I intron in knt gene, E. coli kanamycin selection, DiMSum; sequences stand for … in CUCUCU…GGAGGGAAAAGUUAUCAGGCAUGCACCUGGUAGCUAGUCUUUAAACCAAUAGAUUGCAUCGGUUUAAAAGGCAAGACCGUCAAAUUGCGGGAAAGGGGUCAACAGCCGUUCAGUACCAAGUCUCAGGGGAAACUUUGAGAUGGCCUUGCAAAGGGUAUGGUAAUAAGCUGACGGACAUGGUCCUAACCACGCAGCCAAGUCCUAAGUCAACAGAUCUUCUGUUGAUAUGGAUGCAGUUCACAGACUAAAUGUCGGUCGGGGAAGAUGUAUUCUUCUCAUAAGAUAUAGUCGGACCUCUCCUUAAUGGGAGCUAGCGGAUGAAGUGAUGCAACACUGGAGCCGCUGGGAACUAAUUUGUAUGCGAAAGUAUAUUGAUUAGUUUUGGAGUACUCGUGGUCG
Details: 37 °C
quantity_name: self-splicing fitness (ln)
Please respond with just the number, no unit label.

Worked cases, answers included:
AAAAAGCAAUAUUACGCCAG ... -2.24
ACGAAGCAAUAUUACGUGUG ... -0.817
AUAGAGCAAUAUUACGGCCU ... -0.365
CGAAAGCAAUAUUACGCUGC ... -2.69

Task: Check the records and state self-splicing fitness (ln) for "GAAUAGCAAUAUUACGAGCC"
Result: 0.00455

Task: Check the records and state self-splicing fitness (ln) for "UUUCAGCAAUAUUACGCUAG"
Result: -0.5

Task: Check the records and state self-splicing fitness (ln) for "UUGCAGCAAUAUUACGUAAU"
Result: -2.24

Task: Check the records and state self-splicing fitness (ln) for "UUAAAGCAAUAUUACGCGCC"
Result: -0.00103

----------
Assay: self-splicing fitness, log relative to wild type (ln ratio); higher = more splicing; Tetrahymena group I intron in knt gene, E. coli kanamycin selection, DiMSum; sequences stand for … in CUCUCU…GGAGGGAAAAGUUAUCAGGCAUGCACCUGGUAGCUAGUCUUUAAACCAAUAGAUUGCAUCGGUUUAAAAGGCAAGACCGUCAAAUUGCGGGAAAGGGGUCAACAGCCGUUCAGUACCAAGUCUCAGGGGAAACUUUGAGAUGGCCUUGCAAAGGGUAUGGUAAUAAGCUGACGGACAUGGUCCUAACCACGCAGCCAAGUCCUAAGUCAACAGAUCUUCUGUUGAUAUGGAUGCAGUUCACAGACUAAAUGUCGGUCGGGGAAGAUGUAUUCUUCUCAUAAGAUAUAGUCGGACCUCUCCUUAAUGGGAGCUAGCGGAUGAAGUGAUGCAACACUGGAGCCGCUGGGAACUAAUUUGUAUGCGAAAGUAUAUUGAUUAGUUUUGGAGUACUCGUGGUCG
Conditions: 30 °C
quantity_name: self-splicing fitness (ln)
Please respond with just the number, no unit label.

Worked cases, answers included:
AUGAAGCAAUAUUACGAACA ... -0.423
CCUGAGCAAUAUUACGACGU ... -2.28
UACAAGCAAUAUUACGACCG ... -0.233

Task: Check the records and state self-splicing fitness (ln) for "AUUUAGCAAUAUUACGCCUG"
Result: -1.23

----------
Experiment: self-splicing fitness, log relative to wild type (ln ratio); higher = more splicing; Tetrahymena group I intron in knt gene, E. coli kanamycin selection, DiMSum; sequences stand for … in CUCUCU…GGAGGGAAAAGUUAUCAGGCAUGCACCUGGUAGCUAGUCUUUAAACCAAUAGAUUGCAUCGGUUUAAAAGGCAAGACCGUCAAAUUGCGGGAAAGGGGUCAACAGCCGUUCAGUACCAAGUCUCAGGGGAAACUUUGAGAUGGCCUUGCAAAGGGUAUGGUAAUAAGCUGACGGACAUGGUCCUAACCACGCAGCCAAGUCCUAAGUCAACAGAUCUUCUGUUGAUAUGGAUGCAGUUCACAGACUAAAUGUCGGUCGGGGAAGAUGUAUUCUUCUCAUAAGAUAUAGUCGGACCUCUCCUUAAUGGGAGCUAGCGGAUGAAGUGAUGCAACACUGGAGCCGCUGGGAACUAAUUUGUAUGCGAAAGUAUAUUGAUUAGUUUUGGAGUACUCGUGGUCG
Settings: 37 °C
quantity_name: self-splicing fitness (ln)
Please respond with just the number, no unit label.

AUAGAGCAAUAUUACGCUUG ... -0.411
CUGUAGCAAUAUUACGACAU ... -0.616
CCCAAGCAAUAUUACGUUUU ... -3.26
CAUUAGCAAUAUUACGUGCG ... -0.237
UGAAAGCAAUAUUACGUGUA ... -1.08

Task: Check the records and state self-splicing fitness (ln) for "CCGCAGCAAUAUUACGCGCC"
Result: -2.02

Task: Check the records and state self-splicing fitness (ln) for "CGCGAGCAAUAUUACGUGCC"
Result: -2.96

Task: Check the records and state self-splicing fitness (ln) for "GCACAGCAAUAUUACGACGA"
Result: 0.243

----------
Experiment: self-splicing fitness, log relative to wild type (ln ratio); higher = more splicing; Tetrahymena group I intron in knt gene, E. coli kanamycin selection, DiMSum; sequences stand for … in CUCUCU…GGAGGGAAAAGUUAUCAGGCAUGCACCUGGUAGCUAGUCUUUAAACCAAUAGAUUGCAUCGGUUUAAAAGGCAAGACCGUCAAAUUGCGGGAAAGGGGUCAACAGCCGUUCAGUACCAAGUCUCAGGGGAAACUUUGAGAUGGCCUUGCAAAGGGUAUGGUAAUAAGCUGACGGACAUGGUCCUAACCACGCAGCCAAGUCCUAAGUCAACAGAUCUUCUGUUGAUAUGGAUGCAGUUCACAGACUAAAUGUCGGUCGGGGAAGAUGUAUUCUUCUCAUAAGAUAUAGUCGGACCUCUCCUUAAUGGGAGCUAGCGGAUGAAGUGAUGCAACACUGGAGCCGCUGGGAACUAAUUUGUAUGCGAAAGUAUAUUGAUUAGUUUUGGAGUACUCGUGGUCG
Details: 30 °C
quantity_name: self-splicing fitness (ln)
Please respond with just the number, no unit label.

AUCUAGCAAUAUUACGGCGA ... -0.505
CGAAAGCAAUAUUACGCGAU ... -2.86
GACGAGCAAUAUUACGAUUC ... -1.39

Task: Check the records and state self-splicing fitness (ln) for "UUAGAGCAAUAUUACGCACU"
Result: -1.24

Task: Check the records and state self-splicing fitness (ln) for "AGGCAGCAAUAUUACGAAGU"
Result: -2.32

Task: Check the records and state self-splicing fitness (ln) for "GGAUAGCAAUAUUACGGAAC"
Result: -1.9

Task: Check the records and state self-splicing fitness (ln) for "CUGCAGCAAUAUUACGUUUU"
Result: -3.97

Task: Check the records and state self-splicing fitness (ln) for "GCUUAGCAAUAUUACGGGAC"
Result: -1.78

Task: Check the records and state self-splicing fitness (ln) for "CGCAAGCAAUAUUACGUAGU"
Result: -3.1

Task: Check the records and state self-splicing fitness (ln) for "UUCAAGCAAUAUUACGCGUU"
Result: -2.62

Task: Check the records and state self-splicing fitness (ln) for "UGGAAGCAAUAUUACGUGUA"
Result: -2.12

Task: Check the records and state self-splicing fitness (ln) for "CUAAAGCAAUAUUACGGCUU"
Result: -3.8

Task: Check the records and state self-splicing fitness (ln) for "UCGCAGCAAUAUUACGGCAA"
Result: -0.188
